B1: TMEM192 (parent)
chain: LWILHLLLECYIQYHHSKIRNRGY

- Variants of: B1
- Method: protein stability index of a GFP-peptide fusion (GPS, HEK-293T) (PSI 1-6); higher = more stable;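 also: lentivirally expressed fusions sorted by FACS into six bins by GFP to DsRed ratio, PSI derived from sequencing read proportions per bin multiplied by bin number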
- Measurement Setup: c terminus: a fixed tail appended
Measurement Kind: protein stability index
Could you keep your reply to the number by itself?

Reference set, count: 2
| Variant Designation | Value |
| --- | --- |
| Q13E | 1.8 |
| G23R | 1.78 |

# lookup: protein stability index of "E9K"
3.05

# lookup: protein stability index of "H5D"
1.05

# lookup: protein stability index of "N21W"
2.74

# lookup: protein stability index of "G23W"
1.77
